Recorded inhibition at 60 µM values for a group of compounds are listed next.
- system.under.test: mushroom tyrosinase (Agaricus bisporus)
- Construct: purchased Sigma-Aldrich
- Sequence (C7FF04 1-392 limits assumed): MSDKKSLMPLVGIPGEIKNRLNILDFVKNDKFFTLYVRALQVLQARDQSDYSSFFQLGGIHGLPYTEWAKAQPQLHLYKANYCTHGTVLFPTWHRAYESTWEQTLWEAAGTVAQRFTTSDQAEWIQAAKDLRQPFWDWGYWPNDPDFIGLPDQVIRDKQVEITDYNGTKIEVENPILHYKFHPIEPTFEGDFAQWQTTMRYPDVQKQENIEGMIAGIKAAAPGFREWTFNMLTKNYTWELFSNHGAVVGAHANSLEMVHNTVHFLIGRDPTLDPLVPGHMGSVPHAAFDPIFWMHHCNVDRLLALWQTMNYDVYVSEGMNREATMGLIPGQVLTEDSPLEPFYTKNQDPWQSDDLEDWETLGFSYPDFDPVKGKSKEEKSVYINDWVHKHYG
- assay.method.text: Tyrosinase inhibition assay (oxidation of L-DOPA, diphenolase activity);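 note: dopachrome formation from L-DOPA by mushroom tyrosinase in phosphate buffer, compound preincubated with enzyme 10 min at 25 °C, inhibition versus sample-free control, enzyme-free blanks subtracted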
- Type: biochemical
- condition.notes: compound at 60 μM; two independent experiments; read-out: Tyrosinase Inhibition % ± STD (60 μM)
Field: numeric (%). Do not append units.

Here is how some compounds turned out for inhibition at 60 µM.
[[record]]
compound = "Oc1cccc(CCc2ccc(O)cc2O)c1 [2,4,3′-Trihydroxydihydrostilbene (7), 2,4,3′-Trihydroxydihydrostilbene]"
experimental_value = 96.3

[[record]]
compound = "O=C1c2c(O)cc(O)cc2OC(c2ccc(O)cc2O)C1O (stereo not drawn) [trans-Dihydromorin (6), trans-dihydromorin]"
experimental_value = 73.1


Turning now to a further compound:
The recorded inhibition at 60 µM for entry Oc1cc(O)cc(-c2cc3ccc(O)cc3o2)c1 equals 61.3

Where do these numbers come from? They come from paper PMC6154579.
